Origin of measurements: ChEMBL document CHEMBL4699634

Assay: Induction of mast cell degranulation in Wistar rat isolated peritoneal cells assessed as effect on histamine release measured after 30 mins
Format: tissue-based
Conditions: mast cell
Numbered stars: 1 amine (or outer) side, 2 acyl side, 3 side chain; on linkers, the order of the positions; unused ones are H or OH. Bridge positions count the residues as written; N and C are the ends. Square brackets hold non-standard residues; d marks the D form. Peptide text beside a SMILES is read from it. * marks the point of attachment. Trp(5-F) = N[C@@H](Cc1c[nH]c2ccc(F)cc12)C(=O)O; X1 = O=C(CCSCc1cccc(CSCCN[*:1])c1)[*:2]; mXylylene = c1cc(C[*:1])cc(C[*:2])c1; Asu = N[C@@H](CCCCCC(=O)O)C(=O)O; PEG4 = NCCOCCOCCOCCOCCC(=O)O; αMeP = C[C@@]1(C(=O)O)CCCN1; X2 = COCCOCCOCCOCCC(=O)*; Mpa = O=C(O)CCS

[
  {
    "compound": "COc1ccc(C[C@@H]2NC(=O)[C@H](Cc3cnc[nH]3)NC(=O)[C@H](CC(=O)O)NC(=O)[C@H](Cc3c[nH]c4ccc(F)cc34)NC(=O)[C@H](Cc3c[nH]c4ccc(F)cc34)NC(=O)[C@@H](C)NC(=O)[C@H](CCCCCC(=O)O)NC(=O)CCSCc3cccc(c3)CSCCNC(=O)[C@]3(C)CCCN3C2=O)cc1 (cyclo([Asu][dA][Trp(5-F)][Trp(5-F)]DHY(Me)[αMeP][X1]))",
    "EC50": "Non-Toxic"
  },
  {
    "compound": "COCCOCCOCCOCCC(=O)NCCCC[C@@H]1NC(=O)CCSCc2cccc(c2)CSC[C@@H](C(N)=O)NC(=O)[C@]2(C)CCCN2C(=O)[C@H](Cc2ccc(O)cc2)NC(=O)[C@H](Cc2cnc[nH]2)NC(=O)[C@H](CC(=O)O)NC(=O)[C@H](Cc2c[nH]c3ccc(F)cc23)NC(=O)[C@H](Cc2c[nH]c3ccc(F)cc23)NC(=O)CNC1=O ([Mpa]K(X2)G[Trp(5-F)][Trp(5-F)]DHY[αMeP]C-NH2; linker 1-10 via mXylylene)",
    "EC50": "Non-Toxic"
  },
  {
    "compound": "C[C@@]12CCCN1C(=O)[C@H](Cc1ccc(O)cc1)NC(=O)[C@H](Cc1cnc[nH]1)NC(=O)[C@H](CC(=O)O)NC(=O)[C@H](Cc1c[nH]c3ccc(F)cc13)NC(=O)[C@H](Cc1c[nH]c3ccc(F)cc13)NC(=O)CNC(=O)[C@H](CCCCNC(=O)CCOCCOCCOCCOCCN)NC(=O)CCSCc1cccc(c1)CSC[C@@H](C(N)=O)NC2=O ([Mpa]K(PEG4)G[Trp(5-F)][Trp(5-F)]DHY[αMeP]C-NH2; linker 1-10 via mXylylene)",
    "EC50": "Non-Toxic"
  }
]

###

Test: Volume of distribution at steady state in C57BL/6 mouse at 1 mg/kg, iv by LC-MS/MS analysis
Assay type: ADME, organism-based
Conditions: in vivo, read-out: Vdss
Numbered stars: 1 amine (or outer) side, 2 acyl side, 3 side chain; on linkers, the order of the positions; unused ones are H or OH. Bridge positions count the residues as written; N and C are the ends. Square brackets hold non-standard residues; d marks the D form. Peptide text beside a SMILES is read from it. Trp(5-F) = N[C@@H](Cc1c[nH]c2ccc(F)cc12)C(=O)O; mXylylene = c1cc(C[*:1])cc(C[*:2])c1; αMeP = C[C@@]1(C(=O)O)CCCN1; Mpa = O=C(O)CCS
endpoint_label: Vd (L/kg)
Lab book: enter the figure in L/kg, no units written.

May I ask what Vd has been recorded for `CC(C)[C@H]1NC(=O)[C@H](CCCCN)NC(=O)CCSCc2cccc(c2)CSCCNC(=O)[C@]2(C)CCCN2C(=O)[C@H](Cc2ccc(O)cc2)NC(=O)[C@H](Cc2cnc[nH]2)NC(=O)[C@H](CC(=O)O)NC(=O)[C@H](Cc2c[nH]c3ccc(F)cc23)NC(=O)[C@H](Cc2c[nH]c3ccc(F)cc23)NC1=O` ? 0.1

May I ask what Vd has been recorded for `C[C@H]1NC(=O)[C@H](CCCCN)NC(=O)CCSCc2cccc(c2)CSCCNC(=O)[C@]2(C)CCCN2C(=O)[C@H](Cc2ccc(O)cc2)NC(=O)[C@H](Cc2cnc[nH]2)NC(=O)[C@H](CC(=O)O)NC(=O)[C@H](Cc2c[nH]c3ccc(F)cc23)NC(=O)[C@H](Cc2c[nH]c3ccc(F)cc23)NC1=O` ? 0.29

May I ask what Vd has been recorded for C[C@@]12CCCN1C(=O)[C@H](Cc1ccc(O)cc1)NC(=O)[C@H](Cc1cnc[nH]1)NC(=O)[C@H](CC(=O)O)NC(=O)[C@H](Cc1c[nH]c3ccc(F)cc13)NC(=O)[C@H](Cc1c[nH]c3ccc(F)cc13)NC(=O)CNC(=O)[C@H](CCCCN)NC(=O)CCSCc1cccc(c1)CSC[C@@H](C(N)=O)NC2=O ([Mpa]KG[Trp(5-F)][Trp(5-F)]DHY[αMeP]C-NH2; linker 1-10 via mXylylene) ? 1.2

###

Biological target: PCSK9/LDLR (Homo sapiens)
Sequence (Q8NBP7 31-152 limits assumed): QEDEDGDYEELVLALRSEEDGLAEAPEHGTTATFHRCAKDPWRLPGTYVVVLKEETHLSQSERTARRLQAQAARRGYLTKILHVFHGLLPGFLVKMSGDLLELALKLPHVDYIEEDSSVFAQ
Sequence (Q8NBP7 153-692 limits assumed): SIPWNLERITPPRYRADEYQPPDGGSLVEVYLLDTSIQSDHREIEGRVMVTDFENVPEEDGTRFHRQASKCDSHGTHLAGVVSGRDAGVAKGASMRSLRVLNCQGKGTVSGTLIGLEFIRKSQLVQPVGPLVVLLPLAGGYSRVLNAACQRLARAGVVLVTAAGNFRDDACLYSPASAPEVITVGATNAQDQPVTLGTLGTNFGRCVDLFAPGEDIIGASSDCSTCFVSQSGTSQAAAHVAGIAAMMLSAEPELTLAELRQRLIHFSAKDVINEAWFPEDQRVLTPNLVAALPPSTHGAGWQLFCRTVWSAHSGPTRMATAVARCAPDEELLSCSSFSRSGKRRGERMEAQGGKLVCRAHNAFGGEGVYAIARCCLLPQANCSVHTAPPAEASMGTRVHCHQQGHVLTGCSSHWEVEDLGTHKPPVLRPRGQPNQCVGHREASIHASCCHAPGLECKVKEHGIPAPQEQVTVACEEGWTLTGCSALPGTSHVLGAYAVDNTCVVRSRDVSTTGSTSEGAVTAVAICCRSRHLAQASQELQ
Sequence (P01130 22-860 partner limits assumed): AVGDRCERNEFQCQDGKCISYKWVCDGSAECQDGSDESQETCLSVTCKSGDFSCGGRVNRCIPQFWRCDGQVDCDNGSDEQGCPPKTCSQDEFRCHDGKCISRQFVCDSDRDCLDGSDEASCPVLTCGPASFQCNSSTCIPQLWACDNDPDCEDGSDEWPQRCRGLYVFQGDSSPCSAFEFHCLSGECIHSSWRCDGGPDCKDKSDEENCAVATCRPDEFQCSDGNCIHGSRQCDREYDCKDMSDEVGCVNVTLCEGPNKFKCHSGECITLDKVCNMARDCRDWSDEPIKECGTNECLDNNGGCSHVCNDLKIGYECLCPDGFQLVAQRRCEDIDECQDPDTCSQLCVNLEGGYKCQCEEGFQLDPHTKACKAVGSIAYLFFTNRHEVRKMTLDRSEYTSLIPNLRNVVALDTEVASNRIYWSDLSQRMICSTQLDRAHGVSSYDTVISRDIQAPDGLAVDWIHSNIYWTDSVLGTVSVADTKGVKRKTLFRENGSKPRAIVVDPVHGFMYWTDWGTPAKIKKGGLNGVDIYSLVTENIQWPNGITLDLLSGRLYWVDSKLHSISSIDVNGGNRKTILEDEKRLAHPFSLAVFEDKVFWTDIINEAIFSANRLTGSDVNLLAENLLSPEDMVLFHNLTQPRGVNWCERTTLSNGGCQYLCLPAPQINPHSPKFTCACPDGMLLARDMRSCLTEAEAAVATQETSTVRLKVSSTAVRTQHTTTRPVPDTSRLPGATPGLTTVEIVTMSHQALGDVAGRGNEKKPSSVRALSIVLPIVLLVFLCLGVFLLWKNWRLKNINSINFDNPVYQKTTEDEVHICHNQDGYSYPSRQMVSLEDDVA
Experiment: Inhibition of avi-tagged-biotinylated human PCSK9 interaction with His-tagged human LDLR EGFa domain by LANCE Ulight Streptavidin based TR-FRET assay
Numbered stars: 1 amine (or outer) side, 2 acyl side, 3 side chain; on linkers, the order of the positions; unused ones are H or OH. Bridge positions count the residues as written; N and C are the ends. Square brackets hold non-standard residues; d marks the D form. Peptide text beside a SMILES is read from it. Trp(5-F) = N[C@@H](Cc1c[nH]c2ccc(F)cc12)C(=O)O; NMePhe(4-F) = CN[C@@H](Cc1ccc(F)cc1)C(=O)O; X4 = CC(N[*:1])(C(=O)[*:2])c1cccc2ccccc12; mXylylene = c1cc(C[*:1])cc(C[*:2])c1; Mpa = O=C(O)CCS
Give Ki for every item shown.
Lab book: enter the figure in nM, no units written.

May I ask what Ki has been recorded for C[C@@H]1NC(=O)[C@H](CC(=O)O)NC(=O)[C@H](Cc2c[nH]c3ccc(F)cc23)NC(=O)[C@H](Cc2c[nH]c3ccc(F)cc23)NC(=O)CNC(=O)[C@H](CCCCN)NC(=O)CCSCc2cccc(c2)CSC[C@@H](C(N)=O)NC(=O)[C@@H]2CCCN2C(=O)[C@H](Cc2ccc(O)cc2)NC1=O ([Mpa]KG[Trp(5-F)][Trp(5-F)]DAYPC-NH2; linker 1-10 via mXylylene) ? 525

May I ask what Ki has been recorded for CC(=O)N[C@@H](Cc1cnc[nH]1)C(=O)N(C)[C@@H](Cc1ccc(F)cc1)C(=O)N[C@H]1CSCc2cccc(c2)CSC[C@@H](C(N)=O)NC(=O)[C@@H]2CCCN2C(=O)[C@H](Cc2ccc(O)cc2)NC(=O)[C@H](Cc2cnc[nH]2)NC(=O)[C@H](CC(=O)O)NC(=O)[C@H](Cc2c[nH]c3ccc(F)cc23)NC(=O)[C@H](Cc2c[nH]c3ccc(F)cc23)NC(=O)CNC(=O)[C@H](CCCCN)NC1=O (Ac-H[NMePhe(4-F)]CKG[Trp(5-F)][Trp(5-F)]DHYPC-NH2; linker 3-12 via mXylylene) ? 956

May I ask what Ki has been recorded for CC1(c2cccc3ccccc23)NC(=O)CNC(=O)[C@H](CCCCN)NC(=O)CCSCc2cccc(c2)CSC[C@@H](C(N)=O)NC(=O)[C@@H]2CCCN2C(=O)[C@H](Cc2ccc(O)cc2)NC(=O)[C@H](Cc2cnc[nH]2)NC(=O)[C@H](CC(=O)O)NC(=O)[C@H](Cc2c[nH]c3ccc(F)cc23)NC1=O (stereo not given in full) ([Mpa]KG[X4][Trp(5-F)]DHYPC-NH2; linker 1-10 via mXylylene) ? 63

###

Experiment: Protein binding in Wistar Han rat plasma
Type: ADME, cell-free
Settings: read-out: PPB (converted)
Numbered stars: 1 amine (or outer) side, 2 acyl side, 3 side chain; on linkers, the order of the positions; unused ones are H or OH. Square brackets hold non-standard residues; d marks the D form. Peptide text beside a SMILES is read from it. Trp(5-F) = N[C@@H](Cc1c[nH]c2ccc(F)cc12)C(=O)O; Lys(Me3) = C[N+](C)(C)CCCC[C@H](N)C(=O)O; X1 = O=C(CCSCc1cccc(CSCCN[*:1])c1)[*:2]; αMeP = C[C@@]1(C(=O)O)CCCN1
Give fraction unbound for every item shown.
Please give only the number in your answer, with no unit.

May I ask what fraction unbound has been recorded for `COc1ccc(C[C@@H]2NC(=O)[C@H]([C@@H](C)O)NC(=O)[C@@H]3CCCN3C(=O)[C@@H]3Cc4cn(c5ccc(F)cc45)Cc4cn(nn4)-c4cc(cc(c4)CSCCC(=O)N[C@@H](C)C(=O)N[C@H](C)C(=O)N[C@@H](Cc4c[nH]c5ccc(F)cc45)C(=O)N3)CSCCNC(=O)[C@]3(C)CCCN3C2=O)cc1` ? 0.003

May I ask what fraction unbound has been recorded for COc1ccc(C[C@@H]2NC(=O)[C@H](Cc3cnc[nH]3)NC(=O)[C@H](CC(=O)O)NC(=O)[C@H](Cc3c[nH]c4ccc(F)cc34)NC(=O)[C@H](Cc3c[nH]c4ccc(F)cc34)NC(=O)[C@@H](C)NC(=O)[C@H](CCCC[N+](C)(C)C)NC(=O)CCSCc3cccc(c3)CSCCNC(=O)[C@]3(C)CCCN3C2=O)cc1 (cyclo(DHY(Me)[αMeP][X1][Lys(Me3)][dA][Trp(5-F)][Trp(5-F)])) ? 0.001
